experimental.target: Lanosterol synthase (Homo sapiens, UniProt P48449)
Sequence (P48449 whole entry): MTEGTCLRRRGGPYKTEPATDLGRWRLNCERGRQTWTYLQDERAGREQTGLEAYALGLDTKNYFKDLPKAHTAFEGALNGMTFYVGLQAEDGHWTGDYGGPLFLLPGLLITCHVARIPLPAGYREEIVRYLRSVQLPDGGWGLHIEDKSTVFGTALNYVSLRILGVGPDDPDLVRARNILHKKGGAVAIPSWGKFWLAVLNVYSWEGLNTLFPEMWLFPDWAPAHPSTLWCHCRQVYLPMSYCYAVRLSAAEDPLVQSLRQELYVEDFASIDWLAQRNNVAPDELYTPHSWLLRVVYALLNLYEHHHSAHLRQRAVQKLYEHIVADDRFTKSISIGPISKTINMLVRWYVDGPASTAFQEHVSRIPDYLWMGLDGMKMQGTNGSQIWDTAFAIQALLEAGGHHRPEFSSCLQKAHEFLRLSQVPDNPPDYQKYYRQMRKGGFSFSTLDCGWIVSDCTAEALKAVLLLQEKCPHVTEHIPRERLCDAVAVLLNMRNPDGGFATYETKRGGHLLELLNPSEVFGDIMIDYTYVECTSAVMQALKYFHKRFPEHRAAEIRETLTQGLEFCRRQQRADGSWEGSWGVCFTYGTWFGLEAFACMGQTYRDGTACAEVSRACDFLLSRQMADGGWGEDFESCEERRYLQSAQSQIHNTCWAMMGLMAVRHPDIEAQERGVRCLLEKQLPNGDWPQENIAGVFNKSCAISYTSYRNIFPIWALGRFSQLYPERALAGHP
protocol.notes: Inhibition of 2,3-oxidosqualene-lanosterol cyclase
measured.parameter: pEC50
Lab note: report pEC50 as minus log10 of the concentration in molar units, number only.

For Lanosterol synthase (Homo sapiens, UniProt P48449), provide pEC50 of N#Cc1ccc(S(=O)(=O)NCCc2ccc(C(O)c3cccnc3)cc2)cc1 (racemic) please.
7.00

====

protocol.notes: Biodistribution in OFA rat liver at 1 mg/kg, iv after 6 hrs
Type: ADME, organism-based
Design: dose 1 mg/kg, route intravenous
details: read-out: Drug uptake
measured.parameter: concentration at 6 h (ng/g)
Return type: number; implicit unit ng/g.

Reference set, count: 3
compound_string=O=C(c1ccc(Cl)cc1)N1CCC(=Cc2ccc(C3=NCCO3)cc2)CC1 unit_text=ng/g test_value=169
compound_string=CN(C)Cc1ccc(CN2CCN(C(=O)c3ccc(OC(F)(F)F)cc3)CC2)cc1 unit_text=ng/g test_value=1320
compound_string=O=C(c1ccc(Cl)cc1)N1CCN(Cc2ccc(-n3ccnc3)cc2)CC1 unit_text=ng/g test_value=660

Let's switch to this compound now.
Would you kindly share the measured concentration at 6 h for `CN1CCN(c2ccc(CN3CCN(S(=O)(=O)c4ccc(Cl)cc4)CC3)cc2)CC1` ?
3270

====

protocol.notes: Metabolic stability in rat liver microsomes assessed as intrinsic clearance […]
Format: ADME, Microsome
measured.parameter: CLint scaled (mL/min/g)
Return type: number; implicit unit mL/min/g.

Reference set, count: 7
compound_string=CN1CCN(c2ccc(CN3CCN(S(=O)(=O)c4ccc(Cl)cc4)CC3)cc2)CC1 test_value=5.4
compound_string=O=C(c1ccc(Cl)cc1)N1CCC(=Cc2ccc(C3=NCCO3)cc2)CC1 test_value=2.3
compound_string=CN(C)Cc1ccc(-c2ccc(CCNS(=O)(=O)c3ccc(C#N)cc3)cc2)cc1 test_value=9.9
compound_string=CN(C)Cc1ccc(CN2CCN(S(=O)(=O)c3ccc(Cl)cc3)CC2)cc1 test_value=2.5
compound_string=O=C(c1ccc(Cl)cc1)N1CCN(Cc2ccc(-c3ccncc3)cc2)CC1 test_value=6
compound_string=CN(C)Cc1ccc(CN2CCN(C(=O)c3ccc(OC(F)(F)F)cc3)CC2)cc1 test_value=3.6
compound_string=O=C(c1ccc(Cl)cc1)N1CCN(Cc2ccc(-n3ccnc3)cc2)CC1 test_value=0.2

Would you kindly share the measured CLint scaled for `O=S(=O)(c1ccc(Cl)cc1)N1CCN(Cc2ccc(-c3ccncc3)cc2)CC1` ?
1.3

====

protocol.notes: Biodistribution in OFA rat eyes at 1 mg/kg, iv after 6 hrs
Format: ADME, organism-based
Design: dose 1 mg/kg, route intravenous
details: eye, read-out: Drug uptake
measured.parameter: concentration at 6 h (ng/g)
Return type: number; implicit unit ng/g.

compound_string=CN(C)Cc1ccc(CN2CCN(C(=O)c3ccc(OC(F)(F)F)cc3)CC2)cc1 test_value=194

Let's switch to this compound now.
Would you kindly share the measured concentration at 6 h for `CN1CCN(c2ccc(CN3CCN(S(=O)(=O)c4ccc(Cl)cc4)CC3)cc2)CC1` ?
123

====

// reported log10(IC50) per item
experimental.target: Lanosterol synthase (Homo sapiens)
Sequence (P48449 whole entry): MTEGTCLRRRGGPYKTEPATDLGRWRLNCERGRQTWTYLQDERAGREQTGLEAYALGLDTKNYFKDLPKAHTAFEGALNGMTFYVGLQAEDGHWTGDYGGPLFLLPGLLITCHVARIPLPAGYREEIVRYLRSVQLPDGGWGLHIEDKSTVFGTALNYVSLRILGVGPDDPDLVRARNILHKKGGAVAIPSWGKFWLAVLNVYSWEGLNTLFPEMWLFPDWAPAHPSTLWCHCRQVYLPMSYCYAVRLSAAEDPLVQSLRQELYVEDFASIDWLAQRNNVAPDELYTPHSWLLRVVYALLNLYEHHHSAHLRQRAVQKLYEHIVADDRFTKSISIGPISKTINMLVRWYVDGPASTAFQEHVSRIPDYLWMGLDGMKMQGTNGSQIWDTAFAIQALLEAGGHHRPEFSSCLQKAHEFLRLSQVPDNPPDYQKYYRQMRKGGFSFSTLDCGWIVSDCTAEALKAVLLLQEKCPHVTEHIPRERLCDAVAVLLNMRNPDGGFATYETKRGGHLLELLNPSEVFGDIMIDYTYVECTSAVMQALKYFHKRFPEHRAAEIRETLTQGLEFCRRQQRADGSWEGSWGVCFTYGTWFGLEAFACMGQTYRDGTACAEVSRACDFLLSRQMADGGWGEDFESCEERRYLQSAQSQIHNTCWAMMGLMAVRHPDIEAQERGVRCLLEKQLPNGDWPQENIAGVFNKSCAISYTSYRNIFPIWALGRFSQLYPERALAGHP
Form field - Quantity: IC50; Unit: nM; Scale: log10

Reference set, count: 5
compound_string=CN(C)Cc1ccc(-c2ccc(CCNS(=O)(=O)c3ccc(C#N)cc3)cc2)cc1 measured_parameter=log10(IC50) test_value=1.45
compound_string=CN1CCN(c2ccc(CN3CCN(S(=O)(=O)c4ccc(Cl)cc4)CC3)cc2)CC1 measured_parameter=log10(IC50) test_value=0.78
compound_string=O=S(=O)(c1ccc(Cl)cc1)N1CCN(Cc2ccc(-c3ccncc3)cc2)CC1 measured_parameter=log10(IC50) test_value=1.11
compound_string=O=C(c1ccc(Cl)cc1)N1CCN(Cc2ccc(-n3ccnc3)cc2)CC1 measured_parameter=log10(IC50) test_value=1.51
compound_string=COc1ccc(C(=O)N2CCN(Cc3ccc(-c4ccncc4)cc3)CC2)cc1 measured_parameter=log10(IC50) test_value=3.40

Let's switch to this compound now.
Would you kindly share the measured log10(IC50) for `Clc1ccc(CN2CCN(Cc3ccc(-c4ccncc4)cc3)CC2)cc1` ?
2.50

====

Tested on: Rattus norvegicus
protocol.notes: Inhibition of neosynthetized cholesterol synthesis in OFA rat liver at 2 mg/kg, po after 8 hrs
Format: functional
// reported inhibition in vivo at 2 mg/kg per item
Return type: number; implicit unit %.

compound_string=CN(C)Cc1ccc(CN2CCN(C(=O)c3ccc(OC(F)(F)F)cc3)CC2)cc1 experimental_target="Rattus norvegicus" measured_parameter="inhibition in vivo at 2 mg/kg" test_value=69
compound_string=O=C(c1ccc(Cl)cc1)N1CCC(=Cc2ccc(C3=NCCO3)cc2)CC1 experimental_target="Rattus norvegicus" measured_parameter="inhibition in vivo at 2 mg/kg" test_value=40
compound_string=CN1CCN(c2ccc(CN3CCN(S(=O)(=O)c4ccc(Cl)cc4)CC3)cc2)CC1 experimental_target="Rattus norvegicus" measured_parameter="inhibition in vivo at 2 mg/kg" test_value=62

Let's switch to this compound now.
Would you kindly share the measured inhibition in vivo at 2 mg/kg for `O=C(c1ccc(Cl)cc1)N1CCN(Cc2ccc(-n3ccnc3)cc2)CC1` ?
20

====

// reported inhibition in vivo at 2 mg/kg per item
Test system: Rattus norvegicus
protocol.notes: Inhibition of neosynthetized cholesterol synthesis in OFA rat lens at 2 mg/kg, po after 3 hrs
Assay type: functional
details: Lens of camera-type eye
Return type: number; implicit unit %.

Reference set, count: 3
compound_string=O=C(c1ccc(Cl)cc1)N1CCN(Cc2ccc(-n3ccnc3)cc2)CC1 experimental_target="Rattus norvegicus" test_value=76
compound_string=O=C(c1ccc(Cl)cc1)N1CCC(=Cc2ccc(C3=NCCO3)cc2)CC1 experimental_target="Rattus norvegicus" test_value=79
compound_string=CN(C)Cc1ccc(CN2CCN(C(=O)c3ccc(OC(F)(F)F)cc3)CC2)cc1 experimental_target="Rattus norvegicus" test_value=64

Would you kindly share the measured inhibition in vivo at 2 mg/kg for `CN1CCN(c2ccc(CN3CCN(S(=O)(=O)c4ccc(Cl)cc4)CC3)cc2)CC1` ?
67
